Kindly supply the reported growth values for the records listed here.
tested on: NCI-H322M lung; test: NCI-60 one-dose screen, 48 h (100 = growth as untreated, 0 = no growth, -100 = all killed); details: 10 µM
The panel holds about 83,000 compounds, 20% with a hit somewhere; the sample as a whole holds those more often.
Answers are plain numbers, in %.

// input: 6 molecules below; output: growth for each
1. CS(=O)CC1=NC(=N)N=C1CS(C)=O (stereo not drawn)
2. CC(C)OC(=O)c1cc(NC(=S)OC(C)C)ccc1Cl
3. Oc1ccc2c(c1)OCC1(O)Cc3cc(O)c(O)cc3C21 (stereo not drawn)
4. O=C1Cc2ccccc2C(=O)O1
5. O=C(O)C(c1ccccc1)C(O)c1ccccc1 (stereo not drawn)
6. O=C(OCC(O)C1OC(c2ccccc2)OC(COC(=O)c2ccccc2)C1O)c1ccccc1 (stereo not drawn)

## Output
1. 101
2. 85.8
3. 103
4. 110
5. 97.6
6. 109

// input: 2 molecules below; output: growth for each
1. CC(=O)OCCC(C)CCC=C(C)C (stereo not drawn)
2. CCS(=O)(=O)c1cc(=O)[nH]c(=O)[nH]1

## Output
1. 114
2. 87.4

// input: 5 molecules below; output: growth for each
1. CN(C)CCN(Cc1ccccc1)c1ccccc1
2. CC1CC(O)C2C3(C)CCCC2(COC3=O)C12CCC1(CCOC1=O)O2 (stereo not drawn)
3. O=C(O)/C=C/C(=O)NCc1ccccc1
4. COC(=O)c1cccc(Br)c1
5. CC1(C)/C(=C\CO)C2CCC1C2 (stereo not drawn)

## Output
1: 110; 2: 117; 3: 93.5; 4: 97.5; 5: 103

====

Kindly supply the reported growth values for the records listed here.
tested on: K-562 leukemia; test: NCI-60 one-dose screen, 48 h (100 = growth as untreated, 0 = no growth, -100 = all killed); conditions: 10 µM
Compounds without any hit were thinned out: in the full panel of roughly 83,000, 20% have a hit.
Numbers only, in %.

> print(dat)
                                   compound  unit.spec  result.value
1                          S=C1NCc2cncnc2N1          %            93
2  CCOC(=O)c1ccc(Nc2sc(C(=O)c3cccc([N+](=O)[O-])c3)c(N)c2C#N)cc1          %          16.1
3  Nc1ccccc1SC(CC(=O)c1ccccc1)c1c(Cl)cccc1Cl (stereo unspecified)          %          12.4
4               COC1=CC(=O)c2nc(Cl)ccc2C1=O          %        0.0099
5   CNC(=O)c1ccccc1CC1(O)c2ccccc2Oc2ccccc21          %            22

Here is another compound to look at.
Query `c1csc(-c2cc(-c3cc(-c4cccs4)[nH]n3)n[nH]2)c1` yields growth of 84.7

====

system: UO-31 renal; assay: NCI-60 one-dose screen, 48 h (100 = growth as untreated, 0 = no growth, -100 = all killed); settings: 10 µM
This is part of a sample that, as a whole, favours compounds with a hit. Of some 83,000 tested, about 20% had one in any assay.
Label 1 for high-side growth (at or above 80%) and 0 for low-side growth (below it).

# count of solved cases: 4
> print(dat)
                                   compound  category.label
1            O=[N+]([O-])c1cccc(C(F)(F)F)c1               1
2  O=C1OC[C@H]2[C@H](c3ccc(O)c(O)c3)c3cc(O)c(O)cc3C[C@H]12               0
3  CCOC(=O)c1ccc(NC(=S)P(=O)(c2ccccc2)c2ccccc2)cc1               1
4  O=S(=O)(O)c1cc(O)c2c(N=Cc3ccccc3O)c(S(=O)(=O)O)ccc2c1               0

We now examine a further compound.
## Input Does the reported growth for O=C(O)CCC(=O)OC(C1CO1)C(OC(=O)CCC(=O)O)C1CO1 (stereo unspecified) fall at or above the 80% mark?
## Output 1

====

test system: MOLT-4 leukemia; assay: NCI-60 one-dose screen, 48 h (100 = growth as untreated, 0 = no growth, -100 = all killed); details: 10 µM
About 83,000 compounds went through this panel and 20% of them were active in at least one assay; those are over-represented in the sample as a whole.
Kindly supply the reported growth values for the records listed here.
One number for each entry, in %.

// input: 5 compounds below; output: growth for each
1. CCOC(=O)c1cc(/C=C/c2ccc(Cl)cc2Cl)on1
2. O=C(OCC(O)C1OC(c2ccccc2)OC(COC(=O)c2ccccc2)C1O)c1ccccc1 (stereo not given)
3. CC(CC(=O)c1ccccc1)c1ccccc1 (stereo not given)
4. Cc1ccc(C(=O)N/N=C/c2ccc3c(c2)OCO3)cc1
5. O=C(O)CCC(NC(=O)OCc1ccccc1)C(=O)O (stereo not given)

## Output
1: 32.5; 2: 102; 3: 103; 4: 91.2; 5: 105

// input: 5 compounds below; output: growth for each
1. Cc1nc2ccccc2c2nnc(SCC(=O)N(Cc3ccccc3)c3ccccc3)n12
2. c1ccc(/C(=N\N=C(/c2ccccc2)c2cccs2)c2cccs2)cc1
3. O=[N+]([O-])c1ccc(N=Nc2ccc(O)c3ccccc23)cc1
4. O=C(/C=C/C(=O)c1ccccc1)c1ccccc1
5. COCCOC(=O)c1ccc(C(C)C)cc1

## Output
1: 93.1; 2: 91.9; 3: 31.5; 4: 79.2; 5: 88.2

// input: 5 compounds below; output: growth for each
1. Cc1cccc([N+](=O)[O-])c1Cl
2. COC(=O)c1ccccc1N(C)C
3. CC(=O)c1ccc(N=C(C#N)C2=C(O)c3ccccc3C2=O)cc1
4. O=C1C=CC2=C3c4cc(O)c(O)cc4CC3(O)COC2=C1O (stereo not given)
5. Cc1cc2nc(CC(=O)c3ccccc3)c(=O)[nH]c2cc1C

## Output
[122, 90.1, 92.1, 103, 89]

====

system: SNB-19 CNS; assay: NCI-60 one-dose screen, 48 h (100 = growth as untreated, 0 = no growth, -100 = all killed); settings: 10 µM
This is part of a sample that, as a whole, favours compounds with a hit. Of some 83,000 tested, about 20% had one in any assay.
Kindly supply the reported growth values for the records listed here.
Numbers only, in %.

Examples with their reported growth follow.
> print(dat)
                                   compound  value.kind  result.value
1            CCOC(=O)c1[nH]c(C)c(C(C)=O)c1C      growth          94.4
2  CC1=CC(C)(C)NC(=S)N1c1ccc(S(=O)(=O)O)c2cccc(S(=O)(=O)O)c12      growth           109
3         CC(=O)c1cc2c(cc1F)C(C)(C)CCC2(C)C      growth           102
4                    CCCCCCCCOC(=O)c1ccccn1      growth           105
5                  O=C(O)CCCCNC(=O)c1ccccc1      growth           108
6     Cc1ccc(C(=O)NC2c3ccccc3Oc3ccccc32)cc1      growth            49

// input: 7 compounds below; output: growth for each
1. CC(CN1CCCCC1)NC(=O)c1scnc1-c1ccccc1 (stereo unspecified)
2. C[C@]12CC[C@@H]3c4ccc(OCC(=O)O)cc4CC[C@H]3[C@@H]1CCC2=O
3. COCCOCCCl
4. O=C(/C(=N/O)c1ccccc1)c1ccccc1
5. O=[N+]([O-])c1ccc(Cl)c(S(=O)(=O)O)c1
6. O=[N+]([O-])c1ccc(/C=C/C=C/c2ccccc2)c(Cl)c1
7. NC(=S)NN=C1CCCC1

## Output
[107, 103, 103, 100, 106, 99.7, 105]

// input: 7 compounds below; output: growth for each
1. COc1cccc(/C=N/NC(=S)NC2CC3CCC2C3)c1O (stereo unspecified)
2. O=c1[nH]nc(SC2CCCCC2)c(=O)[nH]1
3. CCN(CC)CCNc1ccc(CO)c2sc3ccccc3c(=O)c12
4. C=C[Si](OC(C)=O)(OC(C)=O)OC(C)=O
5. CN(C)c1ccc2oc(=O)c3ccccc3c2c1
6. c1cc2cccc3c4cccc5cccc(c(c1)c23)c54
7. S=c1sc2ccccc2n1CN1CCCCC1

## Output
1: 72.4; 2: 103; 3: 43.2; 4: 109; 5: 81.3; 6: 99.5; 7: 104

// input: 2 compounds below; output: growth for each
1. c1ccc(Cc2ccccc2)cc1
2. CC1=C(/C=C/C(C)=C/C=C/C(C)=C/CO)C(C)(C)CCC1

## Output
[104, 95.7]
